Values from ChEMBL document CHEMBL4513216

tested on: Plasmodium berghei; test: Screen against P. berghei liver stage (PbLuc), transformed with Luciferase, at 10uM; type: functional, HepG2; conditions: tested at 10 uM
The whole screen tested about 69,000 compounds, of which about 8,600 (12%) showed an effect of 50% or more. What follows is part of a selection rich in strong results, with near analogues and random picks from the rest.
outcome-measure: INHIBITION (%)
Just the number in %, nothing appended.

Here is how some compounds turned out for INHIBITION.
{"compound": "O=C(c1ccoc1)N1CC[C@@H]2O[C@@H](COCc3ccccn3)CC[C@@H]21", "INHIBITION / %": 53.2}
{"compound": "COc1ccccc1C1CNC(=O)c2nc(-c3cnn(C)c3)[nH]c2C1 (stereo not given)", "INHIBITION / %": -36.5}
{"compound": "CCc1sc(C(=O)N2CCC(Nc3ccc(C)nn3)CC2)cc1C", "INHIBITION / %": 42}

// compound O=C(c1ccoc1)N1CC[C@@H]2O[C@@H](COCc3ccncc3)CC[C@@H]21 , assay Plasmodium berghei, INHIBITION value: 52

Form field, INHIBITION with Plasmodium berghei, item CN(C)CCOC[C@H]1CC[C@H]2[C@H](CCN2C(=O)c2ccoc2)O1 : 34.6

Measured INHIBITION (Plasmodium berghei), entry CCOCCN1CCN(C=C2NN=C(c3occc3C)O2)CC1CC (stereo not given) : 76.7

I looked up Cc1ccc(CN2CCC3(CC(=O)N(c4ccc5c(c4)OCO5)C3)C2)o1 (stereo not given) and its INHIBITION for Plasmodium berghei was 69.5

Noted INHIBITION for Nc1cc(CCCNC(=O)NC2CCCC2)nn1-c1ccccc1 , tested on Plasmodium berghei: -26.2

# lookup: COc1ccccc1C1CNC(=O)c2nc(-c3nccn3C)[nH]c2C1 (stereo not given) on Plasmodium berghei, INHIBITION = 55.7

Field INHIBITION (Plasmodium berghei), entry O=C1CC2(CCN(Cc3ccco3)C2)CN1c1ccc2c(c1)OCO2 (stereo not given) : 78.8

Noted INHIBITION for O=C(c1ccc(Cn2cnnn2)cc1)N1CC[C@H](CO)[C@H](O)C1 , tested on Plasmodium berghei: 22.5

Value sought: INHIBITION, system Plasmodium berghei, item Cc1ccoc1C1=NNC(=CN2CCn3c(C)nnc3C2)O1 . Result: -21.7

###

The following compounds are listed with their measured INHIBITION values.
system: Plasmodium berghei; test: Screen against P. berghei liver stage (PbLuc), transformed with Luciferase, at 10uM; type: functional, HepG2; settings: tested at 10 uM
Among all 69,000 compounds or so, about 8,600 (12%) showed an effect of 50% or more. For the sample, strong results were picked, then their nearest neighbours and some compounds at random.
Enter your answer as a number in %; do not include the unit.

{"compound": "COCCc1noc(CN2CCCC2c2c(C)nn(C)c2Cl)n1 (centres undefined)", "unit-symbol": "%", "INHIBITION": 5.9}
{"compound": "Cc1nc(CN2CCCC(N(C)CC3(O)CCCCC3)C2)no1 (centres undefined)", "unit-symbol": "%", "INHIBITION": -3.2}
{"compound": "c1ccc(-c2cc(CNCCCC3CCOC3)c3nnnn3c2)cc1 (centres undefined)", "unit-symbol": "%", "INHIBITION": 74.9}
{"compound": "CCN(CC)C(=O)CCn1ncc2c(Cl)cccc21", "unit-symbol": "%", "INHIBITION": -4.74}
{"compound": "CNCc1ccc([C@@H]2CN(C(C)=O)C[C@H]2C(=O)N(C)C)cc1", "unit-symbol": "%", "INHIBITION": 35.55}

Data point: Cc1nc(C)n(C2CCCN(C(=O)c3ccc(F)c(F)c3)C2)n1 (centres undefined) ; INHIBITION = 6.333

Just so you know, measured INHIBITION for C/C=C(\C)CN1C[C@H](c2cccc(OC)c2)[C@@H](N)C1 came out at -0.273

Lookup result for O=C(CCn1ncc2c(Cl)cccc21)NCC1CC1 ; measured INHIBITION: 68.9

Measured INHIBITION, COCCNC(=O)CCn1ncc2c(Cl)cccc21 : 55.7

###

test system: Plasmodium berghei; assay: Screen against P. berghei liver stage (PbLuc), transformed with Luciferase, at 10uM; assay type: functional, HepG2; settings: tested at 10 uM
In all, about 69,000 compounds went through this assay and about 8,600 (12%) showed an effect of 50% or more. The sample holds strong results, similar compounds and a random draw of the others, so the mix is not that of the screen.
Just a reminder that ties go to 0 (no): only INHIBITION strictly below 30% counts as 1 (yes).

Observe how each entry below is paired with its result.
{"compound": "Cc1cnc(N2CCOC3(CCCN(C)C3)C2)nc1 (configuration not stated)", "assigned-label": "0 (no)"}
{"compound": "Cc1nc(-c2cc(Cl)c3c(c2)CC(CN)O3)c[nH]1 (configuration not stated)", "assigned-label": "1 (yes)"}
{"compound": "CC(C)c1csc(C2CCCN(C(=O)c3ccc(=O)n(C)n3)C2)n1 (configuration not stated)", "assigned-label": "1 (yes)"}
{"compound": "CC(CNC(=O)c1cn(-c2ccccc2)nn1)Cn1cccn1 (configuration not stated)", "assigned-label": "1 (yes)"}
{"compound": "CC(C)c1csc(C2CCCN(C(=O)c3ccc(=O)n(C)c3)C2)n1 (configuration not stated)", "assigned-label": "0 (no)"}

Prompt: Hello, is INHIBITION of the following compound strictly smaller than 30%? CC(C1CCN(Cc2ccc(OC(F)F)cc2)CC1)N1CCOCC1 (configuration not stated)
Completion: 0 (no)

Prompt: Hi there! Is INHIBITION for CO[C@@H]1CCN(Cc2nccs2)C[C@@H]1Cc1cccc(C)c1 below 30%, do you know?
Completion: 0 (no)

Prompt: In plain terms, does CC(C)c1csc(C2CCCN(C(=O)Cn3ccccc3=O)C2)n1 (configuration not stated) come in under 30% for INHIBITION?
Completion: 1 (yes)

Prompt: # check: INHIBITION < 30% for CC(C)c1csc(C2CCCN(C(=O)c3ncccn3)C2)n1 (configuration not stated)
Completion: 0 (no)

Prompt: Given the entry CC(=O)N1CCCC2(C1)CN(c1ncc(C)cn1)CCO2 (configuration not stated) , would its reported INHIBITION be below 30%?
Completion: 1 (yes)

Prompt: Dear reviewer, please state whether CC(C)c1csc(C2CCCN(C(=O)c3ccc[nH]3)C2)n1 (configuration not stated) has INHIBITION strictly beneath 30%.
Completion: 0 (no)

Prompt: For CCS(=O)(=O)N1CCOCC2(CCN(c3ccccn3)C2)C1 (configuration not stated) , is the recorded INHIBITION below the cut-off of 30%?
Completion: 1 (yes)

###

system: Plasmodium berghei; assay: Screen against P. berghei liver stage (PbLuc), transformed with Luciferase, at 10uM; assay type: functional, HepG2; details: tested at 10 uM
In all, about 69,000 compounds went through this assay and about 8,600 (12%) showed an effect of 50% or more. Only a selection was taken, and strong results are over-represented in it overall.
outcome-measure: INHIBITION
Please format your answer as a value with the unit trailing.

{"compound": "Cc1ncc2c(n1)CN(CCCOc1ccc(C#N)cc1)CC2", "INHIBITION": "19.2%"}
{"compound": "O=C(CC1CC1)N1CCc2ncc(Cn3cncn3)n2CC1", "INHIBITION": "57.9%"}
{"compound": "O=C(c1cnc2[nH]c(=O)[nH]c(=O)c2c1)N1CCCC1C1CCCCC1 (stereo not given)", "INHIBITION": "-1.35%"}
{"compound": "CCS(=O)(=O)N1CCC2(CC1)CC1(CCN(CCOC)CC1)C(=O)N2C", "INHIBITION": "40.8%"}
{"compound": "O=C(Cc1ccc(F)cc1)N1CCn2cc(Cn3cncn3)nc2C1", "INHIBITION": "-13.2%"}
{"compound": "COc1ccnc(N2CCN(C(=O)c3ccn(C)c(=O)c3)CC2)n1", "INHIBITION": "-21.8%"}
{"compound": "Cc1nccn1CCCC(=O)N1CCC(N(C)c2cccnn2)CC1", "INHIBITION": "12.7%"}
{"compound": "CN(C)CCC1CCN(Cc2ccn(C)c(=O)c2)CC1", "INHIBITION": "-8.11%"}

Note to self: INHIBITION recorded for CC1c2ncc(Cn3cncn3)n2CCN1C(=O)N(C)C (stereo not given) was 49%

Entry under test: CC1c2ncc(Cn3cncn3)n2CCN1C(=O)c1cscn1 (stereo not given) . Its INHIBITION was -6.3%

Recorded INHIBITION (compound O=C(Cc1ccccn1)N1CCc2ncnc(NC3CCC3)c2CC1 ): 38.5%

INHIBITION recorded for this compound, O=C1CN(Cc2cn(C3CCN(C4CSCCSC4)CC3)nn2)CCN1 , is 65.6%

Field INHIBITION (entry O=C(c1ccc(=O)[nH]n1)N1CCCC1C1CCCC1 (stereo not given) ) reads 18%

// sample OC1CCCN(Cc2cn(CC3CCN(C4CCSCC4)CC3)nn2)C1 (stereo not given) , its INHIBITION was 18.3%

Reported INHIBITION for O=C(Cc1ccc(F)cc1)N1CCn2c(Cn3cncn3)cnc2C1 was 57.9%
